Reported values of protein stability index for individual entries
B1: GNB5 (parent)
chain: YYPSGDAFASGSDDATCRLYDLRA

- Variants of: B1
- Assay info: protein stability index of a GFP-peptide fusion (GPS, HEK-293T) (PSI 1-6); higher = more stable;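 further: lentivirally expressed fusions sorted by FACS into six bins by GFP to DsRed ratio, PSI derived from sequencing read proportions per bin multiplied by bin number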
- Experimental setup: c terminus: a fixed tail appended
Just the number.

State its protein stability index for this variant: L19T 3.07

Return value of protein stability index for input Y2E , no commentary. 4.83

Input T16C , output reported protein stability index. 2.27

Fill in reported protein stability index for this entry: D13R 1.88

Read off the recorded protein stability index for A24Q 3.01

Return protein stability index for the following variant: S4V 2.56

Supply measured protein stability index of D14R in your reply. 1.9

// Input: Y2C . Output its protein stability index only. 2.09

Consider the variant Y20H . State its measured protein stability index. 2.42
